system: Klebsiella pneumoniae; assay: Antibacterial activity against Klebsiella pneumoniae assessed as zone of inhibition after 24 to 48 hrs by well diffusion method; format: functional
Each entry below carries its recorded inhibition zone (IZ).

>  <entry smiles>
CC1(C)S[C@@H]2[C@H](NC(=O)[C@H](N)c3ccc(O)cc3)C(=O)N2[C@H]1C(=O)O

>  <inhibition zone (IZ)>
6 mm

$$$$
>  <entry smiles>
CC1(C)S[C@@H]2[C@H](NC(=O)Cc3ccccc3)C(=O)N2[C@H]1C(=O)O

>  <inhibition zone (IZ)>
0 mm

$$$$
>  <entry smiles>
CC1(C)S[C@@H]2[C@H](NC(=O)[C@H](N)c3ccccc3)C(=O)N2[C@H]1C(=O)O

>  <inhibition zone (IZ)>
6 mm

$$$$
>  <entry smiles>
CN(C)[C@@H]1C(O)=C(C(N)=O)C(=O)[C@@]2(O)C(O)=C3C(=O)c4c(O)cccc4[C@@](C)(O)[C@H]3C[C@@H]12

>  <inhibition zone (IZ)>
14 mm

$$$$
